# Test system: 782815-120-R-J1-PDC complex spheroid viability;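 further: spheroids exposed to compounds for 7 days before reading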
# measurement description: Anticancer human tumor 782815-120-R-J1-PDC patient-derived colon adenocarcinoma cell line growth inhibition [RAS]; active means viability on the fitted dose curve at most 10% of control; inactive means the rest
# test settings: second compound 0.03 µM; first compound 0.0316 µM
Bench note: report the call from active, inactive

# fetch the recorded call for Cc1nc(N2CCC3(CC2)COC(C)C3N)c(CO)nc1Sc1ccnc(N)c1Cl (configuration not stated) + CCn1c(-c2cc(N3CCN(C)CC3)cnc2C(C)OC)c2c3cc(ccc31)-c1csc(n1)CC(NC(=O)C1CC1C)C(=O)N1CCCC(N1)C(=O)OCC(C)(C)C2 here
inactive

Another: CC(C)NCC(C(=O)N1CCN(c2ncnc3c2C(C)CC3O)CC1)c1ccc(Cl)cc1 (configuration not stated) + CCn1c(-c2cc(N3CCN(C)CC3)cnc2C(C)OC)c2c3cc(ccc31)-c1csc(n1)CC(NC(=O)C1CC1C)C(=O)N1CCCC(N1)C(=O)OCC(C)(C)C2
inactive

Another: NC1c2ccccc2OC12CCN(c1cnc3c(N4CCCc5ncccc54)n[nH]c3n1)CC2 (configuration not stated) + CCn1c(-c2cccnc2C(C)OC)c2c3cc(ccc31)N1CCOC(CC(NC(=O)C(C(C)C)N(C)C(=O)C3(F)CCN(C(=O)C#CC(C)(C)N(C)C)CC3)C(=O)N3CCCC(N3)C(=O)OCC(C)(C)C2)C1
inactive

Another: Cc1nc(N2CCC3(CC2)COC(C)C3N)c(CO)nc1Sc1ccnc(N)c1Cl (configuration not stated) + CCn1c(-c2cccnc2C(C)OC)c2c3cc(ccc31)N1CCOC(CC(NC(=O)C(C(C)C)N(C)C(=O)C3(F)CCN(C(=O)C#CC(C)(C)N(C)C)CC3)C(=O)N3CCCC(N3)C(=O)OCC(C)(C)C2)C1
inactive

Another: CCN1CCN(Cc2ccc(Nc3ncc(F)c(-c4cc(F)c5nc(C)n(C(C)C)c5c4)n3)nc2)CC1 + CCn1c(-c2cc(N3CCN(C)CC3)cnc2C(C)OC)c2c3cc(ccc31)-c1csc(n1)CC(NC(=O)C1CC1C)C(=O)N1CCCC(N1)C(=O)OCC(C)(C)C2
inactive

Another: CC(=O)OC12COC1CC(O)C1(C)C(=O)C(O)C3=C(C)C(OC(=O)C(O)C(NC(=O)OC(C)(C)C)c4ccccc4)CC(O)(C(OC(=O)c4ccccc4)C21)C3(C)C (configuration not stated) + CCn1c(-c2cc(N3CCN(C)CC3)cnc2C(C)OC)c2c3cc(ccc31)-c1csc(n1)CC(NC(=O)C1CC1C)C(=O)N1CCCC(N1)C(=O)OCC(C)(C)C2
inactive

Another: Nc1ccn(C2OC(CO)C(O)C2(F)F)c(=O)n1 (configuration not stated) + CCn1c(-c2cc(N3CCN(C)CC3)cnc2C(C)OC)c2c3cc(ccc31)-c1csc(n1)CC(NC(=O)C1CC1C)C(=O)N1CCCC(N1)C(=O)OCC(C)(C)C2
inactive

Another: C=CC(=O)N1CCN(c2nc(OCC3CCCN3C)nc3c(F)c(-c4nc(N)cc(C)c4C(F)(F)F)c(Cl)cc23)C(C)C1 (configuration not stated) + CCn1c(-c2cccnc2C(C)OC)c2c3cc(ccc31)N1CCOC(CC(NC(=O)C(C(C)C)N(C)C(=O)C3(F)CCN(C(=O)C#CC(C)(C)N(C)C)CC3)C(=O)N3CCCC(N3)C(=O)OCC(C)(C)C2)C1
inactive

Another: CC(Nc1ccc2c(c1)OCCn1cc(N3C(=O)OCC3C(F)F)nc1-2)C(N)=O (configuration not stated) + CCn1c(-c2cccnc2C(C)OC)c2c3cc(ccc31)N1CCOC(CC(NC(=O)C(C(C)C)N(C)C(=O)C3(F)CCN(C(=O)C#CC(C)(C)N(C)C)CC3)C(=O)N3CCCC(N3)C(=O)OCC(C)(C)C2)C1
inactive

Another: NC1c2ccccc2OC12CCN(c1cnc3c(N4CCCc5ncccc54)n[nH]c3n1)CC2 (configuration not stated) + CCn1c(-c2cc(N3CCN(C)CC3)cnc2C(C)OC)c2c3cc(ccc31)-c1csc(n1)CC(NC(=O)C1CC1C)C(=O)N1CCCC(N1)C(=O)OCC(C)(C)C2
inactive

Another: CC1(O)CCCC1n1c(=O)c(C(F)F)cc2cnc(NC3CCN(S(C)(=O)=O)CC3)nc21 (configuration not stated) + CCn1c(-c2cc(N3CCN(C)CC3)cnc2C(C)OC)c2c3cc(ccc31)-c1csc(n1)CC(NC(=O)C1CC1C)C(=O)N1CCCC(N1)C(=O)OCC(C)(C)C2
inactive

Another: O=C(c1ccc(F)c(F)c1Nc1ccc(I)cc1F)N1CC(O)([C@@H]2CCCCN2)C1 + CCn1c(-c2cc(N3CCN(C)CC3)cnc2C(C)OC)c2c3cc(ccc31)-c1csc(n1)CC(NC(=O)C1CC1C)C(=O)N1CCCC(N1)C(=O)OCC(C)(C)C2
active
